Biological target: CYP3A4 (Homo sapiens)
Sequence (P08684 whole entry): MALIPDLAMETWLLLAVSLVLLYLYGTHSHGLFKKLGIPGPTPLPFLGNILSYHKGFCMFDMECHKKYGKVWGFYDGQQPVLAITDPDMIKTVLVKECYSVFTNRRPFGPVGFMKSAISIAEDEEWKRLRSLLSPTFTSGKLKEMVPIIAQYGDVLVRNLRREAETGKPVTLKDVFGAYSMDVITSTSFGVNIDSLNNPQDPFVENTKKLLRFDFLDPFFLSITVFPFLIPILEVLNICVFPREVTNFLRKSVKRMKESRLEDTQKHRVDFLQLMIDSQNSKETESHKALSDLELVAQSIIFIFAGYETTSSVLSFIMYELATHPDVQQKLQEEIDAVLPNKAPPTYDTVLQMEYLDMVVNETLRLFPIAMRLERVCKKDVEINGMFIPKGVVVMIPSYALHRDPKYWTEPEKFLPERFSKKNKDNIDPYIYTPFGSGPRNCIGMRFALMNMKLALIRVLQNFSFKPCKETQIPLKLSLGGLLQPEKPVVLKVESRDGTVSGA
Assay: Inhibition of CYP3A4 (unknown origin) using midazolam substrate at 10 uM
Type: ADME
Details: probe midazolam
Each entry below carries its recorded inhibition at 10 µM.

>>> print(df.to_string())
                              line_notation           study_target  readout_value
0  CNC(=O)O[C@H]1COc2ccc(N3CCN(C4COC4)CC3)cc2[C@@H]1NC(=O)c1ccc(F)cc1  CYP3A4 (Homo sapiens)          < 15%

Kindly review the next molecule as well.
Q) Record request: inhibition at 10 µM value, item CNC(=O)O[C@H]1CCc2ccc(N3CCN(C4COC4)CC3)cc2[C@@H]1NC(=O)c1ccc(F)cc1
A) < 15%
